# tested on: T1, human MIC-1 receptor (hGFRAL, GDNF family receptor alpha like), full length (human, UniProt Q6UXV0 19-394)
# T1 construct: whole, on cells
# T1 sequence (looked up): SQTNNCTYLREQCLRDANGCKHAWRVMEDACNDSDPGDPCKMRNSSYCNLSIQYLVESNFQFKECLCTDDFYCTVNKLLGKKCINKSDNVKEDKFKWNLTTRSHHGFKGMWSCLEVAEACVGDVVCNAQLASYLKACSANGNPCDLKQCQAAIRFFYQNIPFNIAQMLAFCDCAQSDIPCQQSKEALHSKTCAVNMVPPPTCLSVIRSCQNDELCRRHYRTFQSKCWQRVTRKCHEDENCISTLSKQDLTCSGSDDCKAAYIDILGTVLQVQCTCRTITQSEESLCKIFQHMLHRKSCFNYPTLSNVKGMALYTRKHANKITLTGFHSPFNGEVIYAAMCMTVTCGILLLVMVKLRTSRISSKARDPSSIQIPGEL
# experimental protocol: SPA: displacement of 50 pM human [125I]-MIC-1 from BHK21-hGFRAL-IRES-hRET cell membranes
# Method: Binding potencies of MIC-1 compounds were calculated by IC50 of displacement curves. BHK21-hGFRAL-IRES-hRET cells were cultured at +37° C. in a humidified atmosphere with 5% CO₂ in complete medium consisting of DMEM with high glucose and sodium pyrovate, heat inactivated 10% Fetal Bovine Serum, 1% Penicillin-Streptomycin, 1 mg/ml G418-Geneticin and 400 ug/ml Hygromycin. […]
metric: IC50 (nM)

• SEPATSCSETPGTSESATPESGPGTSTEPSEG-MIC-1, des-N3, M57L, M86L (Cys mutation G(-26)C) (ligand, homodimer; no protractor) SEPATSCSETPGTSESATPESGPGTSTEPSEGARGDHCPLGPGRCCRLHTVRASLEDLGWADWVLSPREVQVTMCIGACPSQFRAANLHAQIKTSLHRLKPDTVPAPCCVPASYNPLVLIQKTDTGVSLQTYDDLLAKDCHCI = 36
• Compound 04 (ligand, Cys-27 (residue 6 of SEQ ID NO: 291): S{Beta}-[2-[2-[[2-[2-[2-[[2-[2-[2-[[(4S)-4-carboxy-4-(13-carboxytridecanoylamino)butanoyl]amino]ethoxy]ethoxy]acetyl]amino]ethoxy]ethoxy]acetyl]amino]ethylamino]-2-oxoethyl]Cys (protractor of Example 10.3), homodimer, two protractors per dimer) SEPATCGSETPGTSESATPESGPGTSTEPSEGARGDHCPLGPGRCCRLHTVRASLEDLGWADWVLSPREVQVTMCIGACPSQFRAANMHAQIKTSLHRLKPDTVPAPCCVPASYNPMVLIQKTDTGVSLQTYDDLLAKDCHCI = 17
• Compound 06 (ligand, Cys-25 (residue 8 of SEQ ID NO: 303): S{Beta}-[2-[2-[[2-[2-[2-[[2-[2-[2-[[(4S)-4-carboxy-4-(17-carboxyheptadecanoylamino)butanoyl]amino]ethoxy]ethoxy]acetyl]amino]ethoxy]ethoxy]acetyl]amino]ethylamino]-2-oxoethyl]Cys (protractor of Example 10.4), homodimer, two protractors per dimer) SEPATSGCETPGTSESATPESGPGTSTEPSEGARGDHCPLGPGRCCRLHTVRASLEDLGWADWVLSPREVQVTMCIGACPSQFRAANLHAQIKTSLHRLKPDTVPAPCCVPASYNPLVLIQKTDTGVSLQTYDDLLAKDCHCI = 21
• Compound 08 (ligand, Cys-3 (residue 30 of SEQ ID NO: 293): S{Beta}-[2-[2-[[2-[2-[2-[[2-[2-[2-[[(4S)-4-carboxy-4-(17-carboxyheptadecanoylamino)butanoyl]amino]ethoxy]ethoxy]acetyl]amino]ethoxy]ethoxy]acetyl]amino]ethylamino]-2-oxoethyl]Cys (protractor of Example 10.4), homodimer, two protractors per dimer) SEPATSGSETPGTSESATPESGPGTSTEPCEGARGDHCPLGPGRCCRLHTVRASLEDLGWADWVLSPREVQVTMCIGACPSQFRAANLHAQIKTSLHRLKPDTVPAPCCVPASYNPLVLIQKTDTGVSLQTYDDLLAKDCHCI = 56
